- System: A-type flu virus (jifang/90-15)
property measured: Activity for inhibiting A-type flu viruses SI (selection index, SI = TC50/IC50)
// no unit string in output, number only

Example entries and their recorded answers appear below.
{"compound": "C=C(C(=O)Oc1ccc(Cl)cc1)C1CCC(C)C2CC(=O)C(C)=C2C1 (stereo not drawn) [B-2, Rupestonic (p-chlorophenyl)-ester]", "value observed": 12.6}
{"compound": "C=C(C(=O)OCC)C1CCC(C)C2CC(=O)C(C)=C2C1 (stereo not drawn) [B-1, Ethyl Rupestonic ester]", "value observed": 4.9}
{"compound": "C=C(C(=O)OCc1ccccc1Br)C1CCC(C)C2CC(=O)C(C)=C2C1 (stereo not drawn) [B-17, Rupestonic (o-bromobenzyl)-ester]", "value observed": 3.9}
{"compound": "NC(=O)c1ncn([C@@H]2O[C@H](CO)[C@@H](O)[C@H]2O)n1 [Ribavirin]", "value observed": 982.8}
{"compound": "C=C(C(=O)Oc1ccc(Br)cc1)C1CCC(C)C2CC(=O)C(C)=C2C1 (stereo not drawn) [B-4, Rupestonic (p-bromophenyl)-ester]", "value observed": 4.3}

QUERY: # return Activity for inhibiting A-type flu viruses SI (selection index, SI = TC50/IC50) of C=C(C(=O)Nc1ccc(Cl)cc1)C1CCC(C)C2CC(=O)C(C)=C2C1 (stereo not drawn) [A-2, N(4-chloro-phenyl)-Rupestonic amide] (system: A-type flu virus (jifang/90-15))
RESULT: 6.3

QUERY: # return Activity for inhibiting A-type flu viruses SI (selection index, SI = TC50/IC50) of C=C(C(=O)Oc1ccccc1Cl)C1CCC(C)C2CC(=O)C(C)=C2C1 (stereo not drawn) [B-3, Rupestonic (o-chlorophenyl)-ester] (system: A-type flu virus (jifang/90-15))
RESULT: 4.3

QUERY: # return Activity for inhibiting A-type flu viruses SI (selection index, SI = TC50/IC50) of C=C(C(=O)Nc1ccccc1Br)C1CCC(C)C2CC(=O)C(C)=C2C1 (stereo not drawn) [A-5, N(2-bromo-phenyl)-Rupestonic amide] (system: A-type flu virus (jifang/90-15))
RESULT: 3.3

QUERY: # return Activity for inhibiting A-type flu viruses SI (selection index, SI = TC50/IC50) of C=C(C(=O)OCc1ccc(Cl)cc1)C1CCC(C)C2CC(=O)C(C)=C2C1 (stereo not drawn) [B-14, Rupestonic (p-chlorobenzyl)-ester] (system: A-type flu virus (jifang/90-15))
RESULT: 3.8

QUERY: # return Activity for inhibiting A-type flu viruses SI (selection index, SI = TC50/IC50) of C=C(C(=O)OCc1ccc([N+](=O)[O-])cc1)C1CCC(C)C2CC(=O)C(C)=C2C1 (stereo not drawn) [B-15, Rupestonic (p-nitryl-benzyl)-ester] (system: A-type flu virus (jifang/90-15))
RESULT: 4.6

QUERY: # return Activity for inhibiting A-type flu viruses SI (selection index, SI = TC50/IC50) of C=C(C(=O)Oc1ccc(C)cc1)C1CCC(C)C2CC(=O)C(C)=C2C1 (stereo not drawn) [B-9, Rupestonic (p-methylphenyl)-ester] (system: A-type flu virus (jifang/90-15))
RESULT: 14.3
